# assay-summary: Tissue distribution of 18F imaging agents in rats
# Type: in vivo, Male Sprague Dawley rats
# assay-conditions: rat, iv tail vein ~15 μCi, 15 min post injection, ± SEM
observed-property: Brain, imaging agent distribution at 15 min (% ID/g)

Recorded results for 3 compounds are shown here.
compound	measurement
CC(C)(C)n1ncc(OCc2ccc(OCCCF)c(Cl)c2)c(Cl)c1=O [Example 67C]	0.42
CC(C)n1ncc(OCc2ccc(COCCF)cc2)c(Cl)c1=O [Example 67H]	0.43
CC(C)(C)n1ncc(OCc2ccc(OCCF)cc2)c(Cl)c1=O [Example 67D]	0.74

A. CC(C)(C)n1ncc(OCc2ccc(C(=O)OCCF)cc2)c(Cl)c1=O [Example 67J]
B. CC(OCCF)c1ccc(COc2cnn(C(C)(C)C)c(=O)c2Cl)cc1 (centres unmarked) [Example 67G]
C. CC(C)(C)n1ncc(OCc2cccc(COCCF)c2)c(Cl)c1=O [Example 67A]
D. [2H]C([2H])(OCCF)c1ccc(COc2cnn(C(C)(C)C)c(=O)c2Cl)cc1 [Example 67E]
Please order the records by their reported Brain, imaging agent distribution at 15 min, lowest number first. # output: labels, in the requested order C, A, B, D

###

# assay-summary: Tissue distribution of 18F imaging agents in rats
# Format: in vivo, Male Sprague Dawley rats
# assay-conditions: rat, iv tail vein ~15 μCi, 15 min post injection, ± SEM
observed-property: Liver, imaging agent distribution at 15 min (% ID/g)

Recorded results for 4 compounds are shown here.
compound	measurement
CC(C)(C)n1ncc(OCc2ccc(OCCCF)c(Cl)c2)c(Cl)c1=O [Example 67C]	2.67
CC(OCCF)c1ccc(COc2cnn(C(C)(C)C)c(=O)c2Cl)cc1 (stereo not drawn) [Example 67G]	0.33
CC(C)(C)n1ncc(OCc2ccc(C#CCCF)cc2)c(Cl)c1=O [Example 67K]	0.99
CC(C)n1ncc(OCc2ccc(COCCF)cc2)c(Cl)c1=O [Example 67H]	0.46

A. CC(C)(C)n1ncc(OCc2ccc(OCCF)cc2)c(Cl)c1=O [Example 67D]
B. CC(C)(C)n1ncc(OCc2ccc(Oc3cccnc3F)cc2)c(Cl)c1=O [Example 67O]
Which record would sort first by descending Liver, imaging agent distribution at 15 min, A or B ? Refer to your chosen entry by its label in the reply. A

###

# assay-summary: Tissue distribution of 18F imaging agents in rats
# Type: in vivo, Male Sprague Dawley rats
# assay-conditions: rat, iv tail vein ~15 μCi, 15 min post injection, ± SEM
# Procedure: Anesthetized (sodium pentobarbital at 50 mg/kg, ip or isoflurane gas inhalation) Male Sprague Dawley rats (250-350 g) received an iv injection of the imaging agent (˜15 μCi) via the tail vein. […] All samples were then weighed and counted for radioactivity (Wallac Wizard 1480 or Packard Cobra II Autogamma); regional tissue uptake of the imaging agent was thus expressed as a percentage of the total injected dose per gram of tissue (% ID/g). […]
observed-property: Femur, imaging agent distribution at 15 min (% ID/g)

Recorded results for 4 compounds are shown here.
compound	measurement
CC(C)(C)n1ncc(OCc2ccc([Si](F)(C(C)(C)C)C(C)(C)C)cc2)c(Cl)c1=O [Example 67N]	0.14
CC(C)(C)n1ncc(OCc2ccc(-c3cnc(F)nc3)cc2)c(Cl)c1=O [Example 67L]	0.31
CC(OCCF)c1ccc(COc2cnn(C(C)(C)C)c(=O)c2Cl)cc1 (stereo not drawn) [Example 67G]	0.40
CC(C)(C)n1ncc(OCc2ccc(C#CCCF)cc2)c(Cl)c1=O [Example 67K]	0.27

a. CC(C)(C)n1ncc(OCc2ccc(C(=O)OCCF)cc2)c(Cl)c1=O [Example 67J]
b. CC(C)(C)n1ncc(OCc2cccc(COCCF)c2)c(Cl)c1=O [Example 67A]
Looking at recorded values for Femur, imaging agent distribution at 15 min, does a or b come in lower? Refer to your chosen entry by its label in the reply. b
(b: 0.06 % ID/g, a: 0.28 % ID/g)

###

# assay-summary: Tissue distribution of 18F imaging agents in rats
# Assay type: in vivo, Male Sprague Dawley rats
# assay-conditions: rat, iv tail vein ~15 μCi, 60 min post injection, ± SEM
observed-property: Muscle, imaging agent distribution at 60 min (% ID/g)

Recorded results for 3 compounds are shown here.
compound	measurement
CC(C)(C)n1ncc(OCc2cccc(OCCF)c2)c(Cl)c1=O [Example 67F]	0.43
CC(C)(C)n1ncc(OCc2ccc(OCCOCCF)cc2)c(Cl)c1=O [Example 67B]	0.15
CC(C)(C)n1ncc(OCc2ccc(Oc3cccnc3F)cc2)c(Cl)c1=O [Example 67O]	0.39

I. CC(C)(C)n1ncc(CCc2ccc(COCCF)cc2)c(Cl)c1=O [Example 67M]
II. CC(C)(C)n1ncc(OCc2ccc(OCCF)cc2)c(Cl)c1=O [Example 67D]
Which record would sort first by descending Muscle, imaging agent distribution at 60 min, I or II ? Refer to your chosen entry by its label in the reply. I

###

# assay-summary: Tissue distribution of 18F imaging agents in rats
# Assay type: in vivo, Male Sprague Dawley rats
# assay-conditions: rat, iv tail vein ~15 μCi, 60 min post injection, ± SEM
observed-property: Pancreas, imaging agent distribution at 60 min (% ID/g)

compound	measurement
CC(C)(C)n1ncc(OCc2ccc(Oc3cccnc3F)cc2)c(Cl)c1=O [Example 67O]	0.38

I. CC(C)(C)n1ncc(OCc2cccc(COCCF)c2)c(Cl)c1=O [Example 67A]
II. CC(C)n1ncc(OCc2ccc(COCCF)cc2)c(Cl)c1=O [Example 67H]
III. CC(C)(C)n1ncc(OCc2cccc(OCCF)c2)c(Cl)c1=O [Example 67F]
Please order the records by their reported Pancreas, imaging agent distribution at 60 min, lowest number first. # output: labels, in the requested order I, II, III

###

# assay-summary: Tissue distribution of 18F imaging agents in rats
# Type: in vivo, Male Sprague Dawley rats
# assay-conditions: rat, iv tail vein ~15 μCi, 15 min post injection, ± SEM
observed-property: Femur, imaging agent distribution at 15 min (% ID/g)

molecule	measurement
CC(C)(C)n1ncc(OCc2ccc(OCCOCCF)cc2)c(Cl)c1=O [Example 67B]	0.80
CC(C)(C)n1ncc(CCc2ccc(COCCF)cc2)c(Cl)c1=O [Example 67M]	0.52
CC(C)(C)n1ncc(OCc2cccc(OCCF)c2)c(Cl)c1=O [Example 67F]	0.44

a. [2H]C([2H])(OCCF)c1ccc(COc2cnn(C(C)(C)C)c(=O)c2Cl)cc1 [Example 67E]
b. CC(C)(C)n1ncc(OCc2ccc(OCCF)cc2)c(Cl)c1=O [Example 67D]
Looking at recorded values for Femur, imaging agent distribution at 15 min, does a or b come in lower? Refer to your chosen entry by its label in the reply. b

###

# assay-summary: Tissue distribution of 18F imaging agents in rats
# Type: in vivo, Male Sprague Dawley rats
# assay-conditions: rat, iv tail vein ~15 μCi, 15 min post injection, ± SEM
# Protocol: Anesthetized (sodium pentobarbital at 50 mg/kg, ip or isoflurane gas inhalation) Male Sprague Dawley rats (250-350 g) received an iv injection of the imaging agent (˜15 μCi) via the tail vein. […] All samples were then weighed and counted for radioactivity (Wallac Wizard 1480 or Packard Cobra II Autogamma); regional tissue uptake of the imaging agent was thus expressed as a percentage of the total injected dose per gram of tissue (% ID/g). […]
observed-property: Muscle, imaging agent distribution at 15 min (% ID/g)

Recorded results for 2 molecules are shown here.
molecule	measurement
CC(C)(C)n1ncc(OCc2ccc(Oc3cccnc3F)cc2)c(Cl)c1=O [Example 67O]	0.28
CC(C)(C)n1ncc(OCc2ccc(-c3cnc(F)nc3)cc2)c(Cl)c1=O [Example 67L]	0.27

I. CC(C)(C)n1ncc(OCc2ccc(C(=O)OCCF)cc2)c(Cl)c1=O [Example 67J]
II. CC(C)(C)n1ncc(OCc2cccc(COCCF)c2)c(Cl)c1=O [Example 67A]
III. CC(C)(C)n1ncc(OCc2ccc(OCCCF)c(Cl)c2)c(Cl)c1=O [Example 67C]
Please order the records by their reported Muscle, imaging agent distribution at 15 min, lowest number first. # output: labels, in the requested order II, III, I

###

# Tested on: hepatocytes
# assay-summary: Metabolic profiling of imaging agents in cryopreserved hepatocytes (HPLC with radiodetection)
# Format: in vitro ADME
# assay-conditions: hepatocytes 1×10^6 cells/mL, 37° C./5% CO2; species and incubation time not given
observed-property: % Parent Remaining (%)

Recorded results for 3 compounds are shown here.
compound	readout-units	% Parent Remaining
CC(C)(C)n1ncc(OCc2ccc(OCCCF)c(Cl)c2)c(Cl)c1=O	%	71
CC(C)(C)n1ncc(OCc2ccc(-c3cnc(F)nc3)cc2)c(Cl)c1=O [Example 48C]	%	95
CC(C)(C)n1ncc(OCc2cccc(COCCF)c2)c(Cl)c1=O	%	30

1. Cc1c(OCc2ccc(COCCF)cc2)cnn(C(C)(C)C)c1=O
2. [2H]C([2H])(OCCF)c1ccc(COc2cnn(C(C)(C)C)c(=O)c2Cl)cc1
3. CC(C)(C)n1ncc(OCc2ccc(C(=O)OCCF)cc2)c(Cl)c1=O
Hello, I need these entries ordered by % Parent Remaining, highest reading first. Thanks! # output: labels, in the requested order 2, 1, 3
(2: 73%, 1: 34%, 3: 19%)

Data credit: patent US9713651B2
